target: human CYP11B1 (Homo sapiens, UniProt P15538)
Construct: expressed in transfected cells
Sequence (P15538 25-503): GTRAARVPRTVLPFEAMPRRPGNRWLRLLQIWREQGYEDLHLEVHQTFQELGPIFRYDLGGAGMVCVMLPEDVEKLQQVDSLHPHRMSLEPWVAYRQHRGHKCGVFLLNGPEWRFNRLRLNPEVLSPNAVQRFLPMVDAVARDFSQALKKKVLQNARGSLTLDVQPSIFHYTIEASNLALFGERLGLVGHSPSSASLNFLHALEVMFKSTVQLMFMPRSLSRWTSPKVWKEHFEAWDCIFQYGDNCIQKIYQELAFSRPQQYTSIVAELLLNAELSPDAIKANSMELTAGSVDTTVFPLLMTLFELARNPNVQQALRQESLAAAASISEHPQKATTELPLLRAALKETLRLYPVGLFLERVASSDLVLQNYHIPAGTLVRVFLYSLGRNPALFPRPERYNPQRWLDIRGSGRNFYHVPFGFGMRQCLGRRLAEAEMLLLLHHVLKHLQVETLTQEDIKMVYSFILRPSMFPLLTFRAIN
procedure details: G-402 cellular enzyme assay, human CYP11B1 (cortisol release, HTRF)
Format: cell-based
experimental parameters: G-402 cells expressing human CYP11B1; 1 μM Deoxycortisol
pEC50: −log10 of the molar value.
Criterion: pEC50 meeting or surpassing 6. Met: class 1. Not met: class 0.

[in] Check the entry CN1C(=O)CCc2cc(-c3cncc(Cn4cc(Cl)ccc4=O)c3)ccc21 : does pEC50 equal or exceed 6?
[out] class 1

[in] Check the entry CN1C(=O)CCc2cc(-c3cncc(Cn4ccc(C#N)cc4=O)c3)ccc21 : does pEC50 equal or exceed 6?
[out] class 1

[in] Check the entry Cc1nccc(=O)n1Cc1cncc(-c2ccc3c(c2)CCC(=O)N3C)c1 : does pEC50 equal or exceed 6?
[out] class 1

[in] Check the entry CN1C(=O)CCc2cc(-c3cncc(Cn4cc(C#N)ccc4=O)c3)ccc21 : does pEC50 equal or exceed 6?
[out] class 0
